target or test system: Beta-secretase 1 (Homo sapiens, UniProt P56817)
Sequence (P56817 whole entry): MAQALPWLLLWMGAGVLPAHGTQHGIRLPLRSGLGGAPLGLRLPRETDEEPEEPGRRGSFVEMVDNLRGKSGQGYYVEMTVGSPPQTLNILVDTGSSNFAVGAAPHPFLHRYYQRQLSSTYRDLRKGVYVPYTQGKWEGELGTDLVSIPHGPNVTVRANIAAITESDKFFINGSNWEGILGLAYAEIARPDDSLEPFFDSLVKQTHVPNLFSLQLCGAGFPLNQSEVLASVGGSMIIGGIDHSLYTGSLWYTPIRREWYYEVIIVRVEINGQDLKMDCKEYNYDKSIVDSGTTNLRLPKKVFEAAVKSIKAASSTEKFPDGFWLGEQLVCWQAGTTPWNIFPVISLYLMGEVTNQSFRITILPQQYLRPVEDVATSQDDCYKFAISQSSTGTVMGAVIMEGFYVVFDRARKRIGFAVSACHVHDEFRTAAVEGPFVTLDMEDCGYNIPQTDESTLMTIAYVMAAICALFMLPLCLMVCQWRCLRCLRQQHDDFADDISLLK
experiment description: Inhibition of BACE1 in human HEK293 cells overexpressing APP with Swedish mutation assessed as inhibition of amyloid beta 40 production
Assay type: cell-based
particulars: read-out: IC50
Listing: pIC50 of selected compounds
Scale explanation: pIC50 corresponds to minus log10 of a concentration expressed in moles per litre.

[in] Report pIC50, nothing else, for this compound: COc1cccc(CNC[C@@H](O)[C@H](Cc2cc(F)cc(F)c2)NC(=O)c2cc(C(C)O)cc(N3CCCCS3(=O)=O)c2)c1 (stereo not given in full)
[out] 6.52

[in] Let me know recorded pIC50 for "CCCO/N=C(/C)c1cc(C(=O)N[C@@H](Cc2cc(F)cc(F)c2)[C@H](O)CNCc2cccc(OC)c2)cc(N(C)S(C)(=O)=O)c1" , thanks.
[out] 6.66

[in] Supply reported pIC50 belonging to this compound: "COc1cccc(CNC[C@@H](O)[C@H](Cc2cc(F)cc(F)c2)NC(=O)c2cc(/C(C)=N\O)cc(N(c3ccccc3)S(C)(=O)=O)c2)c1"
[out] 7.04

----------
Recorded pIC50 by entry
target or test system: Beta-secretase 1 (Homo sapiens, UniProt P56817)
experiment description: Binding affinity to BACE assessed as displacement of [3H]BMS-599240
particulars: read-out: IC50
Please keep in mind that pIC50 is minus log10 of the molar concentration; only the number is needed.

As a guide, the following entries are already answered.
INSERT INTO assay_data (compound, measured_parameter, quantitative_readout) VALUES
  ('COc1cccc(CNC[C@@H](O)[C@H](Cc2cc(F)cc(F)c2)NC(=O)c2cc(/C(C)=N\OCC(C)C)cc(N(C)S(C)(=O)=O)c2)c1', 'pIC50', 6.76),
  ('COc1cccc(CNC[C@@H](O)[C@H](Cc2cc(F)cc(F)c2)NC(=O)c2cc(/C(C)=N\O)cc(N(c3ccccc3)S(C)(=O)=O)c2)c1', 'pIC50', 8.05),
  ('COc1cccc(CNC[C@@H](O)[C@H](Cc2cc(F)cc(F)c2)NC(=O)c2cc(C(C)=O)cc(N3CCCCS3(=O)=O)c2)c1', 'pIC50', 7.05),
  ('COc1cccc(CNC[C@@H](O)[C@H](Cc2cc(F)cc(F)c2)NC(=O)c2cc(C(C)O)cc(N(C)S(C)(=O)=O)c2)c1 (stereo partly drawn)', 'pIC50', 7.37),
  ('CCCN(CCC)C(=O)c1cc(Oc2ccccc2)cc(C(=O)N[C@@H](Cc2cc(F)cc(F)c2)[C@H](O)CNCc2cccc(OC)c2)c1', 'pIC50', 8.00),
  ('CCCN(CCC)C(=O)c1cc(C(=O)N[C@@H](Cc2cc(F)cc(F)c2)[C@H](O)CNCc2cccc(OC)c2)cc(C(C)O)c1 (stereo partly drawn)', 'pIC50', 8.70),
  ('COc1cccc(CNC[C@@H](O)[C@H](Cc2cc(F)cc(F)c2)NC(=O)c2cccc(C(=O)N[C@H](C)c3ccccc3)c2)c1', 'pIC50', 7.05);

We next turn to a different compound, shown below.
[in] Given "CCCN(CCC)C(=O)c1cc(C(=O)N[C@@H](Cc2cc(F)cc(F)c2)[C@H](O)CNCc2cccc(OC)c2)cc(/C(C)=N\OCC(C)C)c1" , respond with its pIC50.
[out] 7.26

----------
target or test system: Beta-secretase 1 (Homo sapiens)
experiment description: Inhibition of BACE1 in human HEK293 cells overexpressing APP with Swedish mutation assessed as inhibition of amyloid beta 40 production
Assay type: cell-based
particulars: read-out: IC50
pIC50: −log10 of the molar value.
Each entry gets Criterion not met if its pIC50 stays under 7, and Criterion met if its pIC50 is 7 or above.

Check out these entries, answers already filled in.
INSERT INTO results (compound, classification) VALUES
  ('CO/N=C(/C)c1cc(C(=O)N[C@@H](Cc2cc(F)cc(F)c2)[C@H](O)CNCc2cccc(OC)c2)cc(N2CCCCS2(=O)=O)c1', 'Criterion not met'),
  ('CCCN(CCC)C(=O)c1cc(C(=O)N[C@@H](Cc2cc(F)cc(F)c2)[C@H](O)CNCc2cccc(OC)c2)cc(C(C)O)c1 (some centres undefined)', 'Criterion met'),
  ('CCCN(CCC)C(=O)c1cc(CCO)cc(C(=O)N[C@@H](Cc2cc(F)cc(F)c2)[C@H](O)CNCc2cccc(OC)c2)c1', 'Criterion met'),
  ('C=CCO/N=C(/C)c1cc(C(=O)N[C@@H](Cc2cc(F)cc(F)c2)[C@H](O)CNCc2cccc(OC)c2)cc(N(C)S(C)(=O)=O)c1', 'Criterion not met'),
  ('C=CCO/N=C(/C)c1cc(C(=O)NC(C)c2ccc(F)cc2)cc(C(=O)N[C@@H](Cc2cc(F)cc(F)c2)[C@H](O)CNCc2cccc(OC)c2)c1 (some centres undefined)', 'Criterion not met');

[in] Reported pIC50 reaches at least 7 for "COc1cccc(CNC[C@@H](O)[C@H](Cc2cc(F)cc(F)c2)NC(=O)c2cc(C(C)=O)cc(N(C)S(C)(=O)=O)c2)c1" ?
[out] Criterion not met

[in] Decide: is the reported value of pIC50 for COc1cccc(CNC[C@@H](O)[C@H](Cc2cc(F)cc(F)c2)NC(=O)c2cccc(C(=O)NC(C)c3ccc(F)cc3)c2)c1 (some centres undefined) equal to or greater than 7?
[out] Criterion not met

[in] Hello, I need to know if "COc1cccc(CNC[C@@H](O)[C@H](Cc2cc(F)cc(F)c2)NC(=O)c2cc(/C(C)=N\OCc3ccccc3)cc(N3CCCCS3(=O)=O)c2)c1" has measured pIC50 not below 7. Thanks!
[out] Criterion not met

[in] # bool: pIC50 of "CCCN(CCC)C(=O)c1cc(C(=O)N[C@@H](Cc2cc(F)cc(F)c2)[C@H](O)CNCc2cccc(OC)c2)cc(/C(C)=N\OC)c1" >= 7
[out] Criterion met

----------
target or test system: Beta-secretase 1 (Homo sapiens, UniProt P56817)
experiment description: Binding affinity to BACE assessed as displacement of [3H]BMS-599240
particulars: read-out: IC50
Each record here notes measured IC50.
Express it in µM; write the number only.

INSERT INTO results (compound_structure_string, target_or_test_system, measured_parameter, quantitative_readout) VALUES
  ('CCCO/N=C(/C)c1cc(C(=O)N[C@@H](Cc2cc(F)cc(F)c2)[C@H](O)CNCc2cccc(OC)c2)cc(N(c2ccccc2)S(C)(=O)=O)c1', 'Beta-secretase 1 (Homo sapiens, UniProt P56817)', 'IC50', 0.006),
  ('C=CCO/N=C(/C)c1cc(C(=O)N[C@@H](Cc2cc(F)cc(F)c2)[C@H](O)CNCc2cccc(OC)c2)cc(C(=O)N[C@H](C)c2ccccc2)c1', 'Beta-secretase 1 (Homo sapiens, UniProt P56817)', 'IC50', 0.086),
  ('CCCN(CCC)C(=O)c1cccc(C(=O)N[C@@H](Cc2cc(F)cc(F)c2)[C@H](O)CNCc2cccc(OC)c2)c1', 'Beta-secretase 1 (Homo sapiens, UniProt P56817)', 'IC50', 0.031);

[in] Give the measured IC50 for "CO/N=C(/C)c1cc(C(=O)N[C@@H](Cc2cc(F)cc(F)c2)[C@H](O)CNCc2cccc(OC)c2)cc(N2CCCCS2(=O)=O)c1"
[out] 0.052

----------
Each entry below carries its recorded IC50.
target or test system: Beta-secretase 1 (Homo sapiens, UniProt P56817)
experiment description: Inhibition of BACE1 in human HEK293 cells overexpressing APP with Swedish mutation assessed as inhibition of amyloid beta 40 production
Type: cell-based
particulars: read-out: IC50
# number only, unit µM dropped from output

[in] Please respond with reported IC50 (system Beta-secretase 1 (Homo sapiens, UniProt P56817)) for "CCCN(CCC)C(=O)c1cc(C(=O)N[C@@H](Cc2cc(F)cc(F)c2)[C@H](O)CNCc2cccc(OC)c2)cc(/C(C)=N\OCc2ccccc2)c1" .
[out] 0.534

[in] Please report the measured IC50 for "CCCN(CCC)C(=O)c1cc(Sc2ccc(OC)cc2)cc(C(=O)N[C@@H](Cc2cc(F)cc(F)c2)[C@H](O)CNCc2cccc(OC)c2)c1" tested on Beta-secretase 1 (Homo sapiens, UniProt P56817).
[out] 0.03

[in] Send back Beta-secretase 1 (Homo sapiens, UniProt P56817) IC50 of "COc1cccc(CNC[C@@H](O)[C@H](Cc2cc(F)cc(F)c2)NC(=O)c2cc(/C(C)=N\OCC(C)C)cc(N3CCCCS3(=O)=O)c2)c1" only.
[out] 2.1

----------
target or test system: Beta-secretase 1 (Homo sapiens, UniProt P56817)
experiment description: Binding affinity to BACE assessed as displacement of [3H]BMS-599240
particulars: read-out: IC50
measured parameter: IC50 (nM)
Lab book: enter the figure in nM, no units written.

Worked cases, IC50 given:
INSERT INTO results (compound, measured_parameter, unit_string, quantitative_readout) VALUES
  ('CCCN(CCC)C(=O)c1cc(C(=O)N[C@@H](Cc2cc(F)cc(F)c2)[C@H](O)CNCc2cccc(OC)c2)cc(C(C)N)c1 (stereo not given in full)', 'IC50', 'nM', 123),
  ('C=CCO/N=C(/C)c1cc(C(=O)NC(C)c2ccc(F)cc2)cc(C(=O)N[C@@H](Cc2cc(F)cc(F)c2)[C@H](O)CNCc2cccc(OC)c2)c1 (stereo not given in full)', 'IC50', 'nM', 168),
  ('COc1cccc(CNC[C@@H](O)[C@H](Cc2cc(F)cc(F)c2)NC(=O)c2cc(C(=O)NC(C)c3ccc(F)cc3)cc(C(C)O)c2)c1 (stereo not given in full)', 'IC50', 'nM', 37),
  ('CO/N=C(\C)c1cc(C(=O)N[C@@H](Cc2cc(F)cc(F)c2)[C@H](O)CNCc2cccc(OC)c2)cc(N(c2ccccc2)S(C)(=O)=O)c1', 'IC50', 'nM', 10),
  ('CCCN(CCC)C(=O)c1cc(C(=O)N[C@@H](Cc2cc(F)cc(F)c2)[C@H](O)CNCc2cccc(OC)c2)cc(/C(C)=N\O)c1', 'IC50', 'nM', 3);

[in] Please look at this compound and report its IC50: "CCCO/N=C(/C)c1cc(C(=O)N[C@@H](Cc2cc(F)cc(F)c2)[C@H](O)CNCc2cccc(OC)c2)cc(N2CCCCS2(=O)=O)c1"
[out] 25

[in] Give reported IC50 value for "COc1cccc(CNC[C@@H](O)[C@H](Cc2cc(F)cc(F)c2)NC(=O)c2cc(/C(C)=N\OCC(C)C)cc(N3CCCCS3(=O)=O)c2)c1"
[out] 428

[in] // fetch IC50 given entry "COc1cccc(CNC[C@@H](O)[C@H](Cc2cc(F)cc(F)c2)NC(=O)c2cc(C(C)=O)cc(N(c3ccccc3)S(C)(=O)=O)c2)c1"
[out] 17

[in] Let me know recorded IC50 for "COc1cccc(CNC[C@@H](O)[C@H](Cc2cc(F)cc(F)c2)NC(=O)c2cc(/C(C)=N\OCc3ccccc3)cc(N(C)S(C)(=O)=O)c2)c1" , thanks.
[out] 9

[in] Please give the documented IC50 of "CCCN(CCC)C(=O)c1cc(CCO)cc(C(=O)N[C@@H](Cc2cc(F)cc(F)c2)[C@H](O)CNCc2cccc(OC)c2)c1"
[out] 10
